# Tested on: HS 578T breast
# experiment-notes: NCI tumour cell line growth inhibition, 48 h; in the data active = GI50 below about 0.43 µM; inactive = the rest
Choose one outcome from this list and give only that: active, inactive

Use these answered entries as a reference point.
compound: Cc1ccc(NCCN(C)CC(C)O)c2c(=O)c3ccc(Cl)cc3sc12 (centres undefined)
qualitative-label: inactive
--
compound: CC(C)(C)OC(=O)N(CCCn1c2c(c3ccccc3c1=O)C(=O)c1ccccc1-2)CCN(CCCn1c2c(c3ccccc3c1=O)C(=O)c1ccccc1-2)C(=O)OC(C)(C)C
qualitative-label: inactive
--
compound: COc1cc2c(c(OC)c1OC)C(=O)c1c-2n(CCCN)c(=O)c2cc([N+](=O)[O-])ccc12
qualitative-label: inactive

Enquiry: Tell me the assay call for COc1cc2c(C#N)n3c(c2cc1OC)C(=O)C(c1ccccc1)Oc1ccccc1-3 (centres undefined) please.
Return: inactive

Enquiry: Tell me the assay call for `CCCN(CCC)c1ccc(C=O)c(OC)c1` please.
Return: inactive

Enquiry: Tell me the assay call for `O=C1c2ccccc2C(=O)c2c1c(NCCNCCO)c1cc[nH]c1c2NCCNCCO` please.
Return: inactive

Enquiry: Tell me the assay call for `CCN(CCc1ccc(F)cc1)c1ccc(CO)c(Cl)c1` please.
Return: inactive

Enquiry: Tell me the assay call for `COc1ccc(S(=O)(=O)N2CCCCC2)cc1NC(=O)c1[nH]c(C)c2c1CCCCC2=O` please.
Return: inactive

====

# Tested on: ACHN renal
# experiment-notes: NCI tumour cell line growth inhibition, 48 h
experimental-readout: TGI

compound: COC(=O)C1=C(O)C(C(=O)OC)[C@@]2(O)[C@@H](C(=O)OC)C(c3ccc(OC(=O)/C(=C/c4ccccc4)c4ccccc4)cc3)C[C@@H]1[C@@H]2C(=O)OC (stereo partly drawn)
TGI: > 100 µM
//
compound: CCOc1ccc2c(-c3ccnc(Nc4cccc(C(F)(F)F)c4)n3)cnn2n1
TGI: > 25 µM
//
compound: CCOC(=O)c1c(SCC#N)n(-c2ccccc2)c(=S)n(-c2ccccc2)c1=O
TGI: > 100 µM
//
compound: N=C(N)SC1c2ccccc2-c2cc([N+](=O)[O-])ccc21 (stereo not drawn)
TGI: 18.9 µM
//
compound: COc1cc2c3c(n(CCCn4cccn4)c(=O)c2cc1OC)-c1cc2c(cc1C3=O)OCO2
TGI: 5.61 µM
//
compound: COc1ccc(S(=O)(=O)N2CCCCC2)cc1NC(=O)c1[nH]c(C)c2c1CCCCC2=O
TGI: > 100 µM
//
compound: O=S(O)CCCCSSCCCCS(=O)(O)=S
TGI: > 100 µM
//
compound: O=C1c2ccccc2C(=O)N1C/C=N/NS(=O)(=O)c1ccc(Cl)cc1
TGI: > 100 µM
//
compound: CN(C)c1ncc(-c2c[nH]c3ccccc23)nc1-c1c[nH]c2ccccc12
TGI: 6.88 µM
//
compound: COc1cc([N+](=O)[O-])c(S(=O)(=O)O)cc1-n1nc(-c2ccccc2)n[n+]1-c1cc(S(=O)(=O)[O-])c([N+](=O)[O-])cc1OC
TGI: > 100 µM

For each of the compounds below, state TGI.
1. COc1ccc(/C=C/c2cc(=O)cc(/C=C/c3ccc(OC)c(O)c3)o2)cc1O
2. CC(C)(C)OC(=O)N(CCCn1c2c(c3ccccc3c1=O)C(=O)c1ccccc1-2)CCN(CCCn1c2c(c3ccccc3c1=O)C(=O)c1ccccc1-2)C(=O)OC(C)(C)C

Return:
1. 6.85 µM
2. 48.9 µM

All figures here come from PubChem BioAssay (NCI).
